Values from patent US8362066B2

What IC50 was measured for each of the following?
Target: Aβ1-40 (Homo sapiens, UniProt P05067)
Construct: Both Aβ1-40 and Aβ1-42 were purchased from Anaspec
Sequence (P05067 672-711 limits assumed): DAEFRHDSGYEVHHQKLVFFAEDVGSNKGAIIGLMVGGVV
Assay: ThT fluorescence assay, inhibition of Aβ1-40 aggregation

Use the examples below as a reference point.
smiles_data	IC50
O=C(O)c1cccc2c(-c3cc4ccccc4o3)cn(Cc3ccccc3)c12	> 50 µM
Oc1ccc2[nH]cc(CN3CCc4ccccc4C3)c2c1	> 200 µM

Shift focus to the following entry.
q: I'd like to know its IC50. The molecule in question is COc1ccccc1Nc1cccc(Nc2ccccc2OC)c1
a: > 50 µM
